Hey, just so you know, these numbers are from paper PMC10004187.

- SYSTEM_NAME: butyrylcholinesterase (BuChE) (Homo sapiens, UniProt P06276)
- Sequence (P06276 29-602): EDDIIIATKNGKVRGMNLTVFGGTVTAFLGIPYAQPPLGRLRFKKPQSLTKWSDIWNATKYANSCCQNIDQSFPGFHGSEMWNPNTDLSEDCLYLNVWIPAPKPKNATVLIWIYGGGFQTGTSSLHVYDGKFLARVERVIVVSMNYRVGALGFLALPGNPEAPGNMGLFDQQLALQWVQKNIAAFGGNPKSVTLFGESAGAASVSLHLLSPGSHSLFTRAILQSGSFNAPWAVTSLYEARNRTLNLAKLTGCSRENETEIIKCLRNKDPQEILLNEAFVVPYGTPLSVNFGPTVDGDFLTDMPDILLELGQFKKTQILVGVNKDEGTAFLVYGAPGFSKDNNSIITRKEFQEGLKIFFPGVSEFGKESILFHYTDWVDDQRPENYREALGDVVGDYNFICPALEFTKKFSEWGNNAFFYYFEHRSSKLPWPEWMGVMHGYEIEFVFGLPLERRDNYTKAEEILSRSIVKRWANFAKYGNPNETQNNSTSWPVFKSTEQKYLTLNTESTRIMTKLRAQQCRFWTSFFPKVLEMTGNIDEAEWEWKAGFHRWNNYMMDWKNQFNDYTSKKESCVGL
- CONDITION_SUMMARY: given for compounds with <50% inhibition; test concentration not given
The reader will find reported Butyrylcholinesterase (BuChE) Inhibition %Inhibition values listed item by item below.
MEASUREMENT_NAME: Butyrylcholinesterase (BuChE) Inhibition %Inhibition

# ITEM_SMILES, RECORDED_MEASUREMENT
data = [
    ("COc1ccc(C(=O)NN=Cc2cc3cc(C)ccc3nc2N2CCCCC2)cc1", "15%"),
    ("Cc1ccc2nc(N3CCCCC3)c(C=NNC(=O)c3ccccc3Cl)cc2c1", "15%"),
    ("COc1ccccc1C(=O)NN=Cc1cc2cccc(C)c2nc1N1CCCCC1", "33%"),
    ("COc1cccc(C(=O)NN=Cc2cc3cccc(C)c3nc2N2CCCCC2)c1", "27%"),
    ("COc1cccc(C(=O)NN=Cc2cc3cc(C)ccc3nc2N2CCCCC2)c1", "28%"),
    ("Cc1ccc2nc(N3CCCCC3)c(C=NNC(=O)c3ccc(N)cc3)cc2c1", "23%"),
    ("Cc1cccc2cc(C=NNC(=O)c3cccc(Cl)c3)c(N3CCCCC3)nc12", "40%"),
    ("Cc1cccc2cc(C=NNC(=O)c3ccc(Cl)cc3Cl)c(N3CCCCC3)nc12", "32%"),
    ("Cc1cccc2cc(C=NNC(=O)c3ccccc3Cl)c(N3CCCCC3)nc12", "38%"),
    ("Cc1cccc2cc(C=NNC(=O)c3ccc(Cl)cc3)c(N3CCCCC3)nc12", "36%"),
    ("Cc1ccc2nc(N3CCCCC3)c(C=NNC(=O)c3ccccc3N)cc2c1", "21%"),
    ("Cc1cccc2cc(C=NNC(=O)c3ccccc3)c(N3CCCCC3)nc12", "32%"),
    ("COc1ccccc1C(=O)NN=Cc1cc2cc(C)ccc2nc1N1CCCCC1", "30%"),
    ("Cc1ccc2nc(N3CCCCC3)c(C=NNC(=O)c3ccc(Cl)cc3Cl)cc2c1", "39%"),
    ("COc1ccc(C(=O)NN=Cc2cc3cccc(C)c3nc2N2CCCCC2)cc1", "38%"),
    ("Cc1ccc2nc(N3CCCCC3)c(C=NNC(=O)c3ccccc3O)cc2c1", "13%"),
    ("Cc1cccc2cc(C=NNC(=O)c3ccc([N+](=O)[O-])cc3)c(N3CCCCC3)nc12", "32%"),
    ("Cc1cccc2cc(C=NNC(=O)c3cccc([N+](=O)[O-])c3)c(N3CCCCC3)nc12", "27%"),
    ("Cc1ccc2nc(N3CCCCC3)c(C=NNC(=O)c3ccc(Cl)cc3)cc2c1", "34%"),
]

====

Entries below carry reported IC50 on UniProt:P06276.

# COMPOUND, SYSTEM_NAME, IC50 (µM)
rows = [
    ("Cc1ccc2nc(N3CCCCC3)c(C=NNC(=O)c3cccc([N+](=O)[O-])c3)cc2c1 [Compound 8b]", "UniProt:P06276", 4.71),
    ("Cc1ccc2nc(N3CCCCC3)c(C=NNC(=O)c3cccc(Cl)c3)cc2c1 [Compound 8g]", "UniProt:P06276", 1.31),
    ("Cc1ccc2nc(N3CCCCC3)c(C=NNC(=O)c3ccc([N+](=O)[O-])cc3)cc2c1 [Compound 8c]", "UniProt:P06276", 1.74),
    ("Cc1ccc2nc(N3CCCCC3)c(C=NNC(=O)c3ccccc3)cc2c1 [Compound 8a]", "UniProt:P06276", 4.64),
]

====

- Tested on: Vero cell lines (normal kidney epithelial cells)
- ASSAY_METHOD_TEXT: SRB cytotoxicity assay against Vero cell line
- Format: cell-based
- CONDITION_SUMMARY: initial screening
MEASUREMENT_NAME: inhibition of Vero cells (toxicity towards normal kidney cells)

# MOLECULE, RECORDED_MEASUREMENT
data = [
    ("Cc1ccc2nc(N3CCCCC3)c(C=NNC(=O)c3ccccc3)cc2c1 [Compound 8a]", "less than 22%"),
    ("Cc1ccc2nc(N3CCCCC3)c(C=NNC(=O)c3ccc([N+](=O)[O-])cc3)cc2c1 [Compound 8c]", "less than 22%"),
    ("COc1cccc(C(=O)NN=Cc2cc3cccc(C)c3nc2N2CCCCC2)c1 [Compound 9i]", "less than 22%"),
    ("Cc1ccc2nc(N3CCCCC3)c(C=NNC(=O)c3cccc(Cl)c3)cc2c1 [Compound 8g]", "less than 22%"),
]
